# Procedure Details: MultiTox-Fluor Cytotoxicity Assay - LYMP1-001 - Live Cells (AID 947)
# Protocol Conditions: LYMP1-001 lymphoblastoid cells, live-cell protease fluorescence viability; series mostly up to 92.2 µM
Records with an inconclusive call do not appear. Activity calls are given as the source filed them. Calls come from the whole dose curve; as a rule, active = well fitted cell-killing curve with a large enough effect; inconclusive = small, poorly fitted or top-dose-only effect; inactive = flat fitted curve, though single readings scatter.
Measurement Name: outcome

Below are worked cases with known answers.
| Compound | Meas Value |
| --- | --- |
| Nc1ccc(S(=O)(=O)c2ccc(N)cc2)cc1 | inactive |
| CCCCCCCC(=O)OCC(COC(=O)CCCCCCC)OC(=O)CCCCCCC | inactive |
| Cc1cc(C)nc(NS(=O)(=O)c2ccc(N)cc2)n1 | inactive |
| CC1CC(OC(=O)c2ccccc2O)CC(C)(C)C1 (stereo unspecified) | inactive |
| CC(=O)OCC(COC(C)=O)OC(C)=O | inactive |

Give outcome for the following compound: FC(F)(F)C(Cl)Br (stereo unspecified)
inactive

Give outcome for the following compound: Cc1cc(=O)[nH]c(=S)[nH]1
inactive

Give outcome for the following compound: CC(=O)Nc1ccc(C(=O)O)cc1
inactive

Give outcome for the following compound: CCN(CC)C(=O)c1cccc(C)c1
inactive

Give outcome for the following compound: CCCC(O)C(CC)CO (stereo unspecified)
inactive

Give outcome for the following compound: O=C(c1ccccc1)C(O)c1ccccc1 (stereo unspecified)
inactive

Give outcome for the following compound: O=C1C(c2[nH]c3ccccc3c2O)=Nc2ccccc21
inactive

Give outcome for the following compound: Cc1c(N(C)C)c(=O)n(-c2ccccc2)n1C
inactive

Give outcome for the following compound: O=C(O)CCCCC1CCSS1 (stereo unspecified)
inactive

Give outcome for the following compound: O=C1c2cccc(O)c2C(=O)c2c(O)cccc21
inactive

Give outcome for the following compound: CCCCOC(=O)c1ccc(N)cc1
inactive
